System: Escherichia coli TOP10;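 also: peptides expressed intracellularly from a pBAD plasmid library in pooled LB shake-flask culture, induced with 0.3% L-arabinose, DNA abundance read by NGS, three biological replicates, DESeq2 with apeglm shrinkage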
run description: shrunken log2 fold change of peptide-encoding DNA abundance (4.5 h post-induction vs induction); higher = less antimicrobial activity (less host growth inhibition)
setup conditions: time post-induction: 4.5 h; library: site-saturation at positions 5, 18, 19, 20
measured attribute: shrunken log2 fold change
# respond with the number and nothing more

{"residue sequence": "RRIRCRPPRLPRPRPRPVETPRP", "shrunken log2 fold change": 0.0672}
{"residue sequence": "RRIRWRPPRLPRPRPRPCTFPRP", "shrunken log2 fold change": -0.72}
{"residue sequence": "RRIRGRPPRLPRPRPRPNNNPRP", "shrunken log2 fold change": -0.0957}

Please provide the recorded shrunken log2 fold change for RRIRFRPPRLPRPRPRPKVLPRP , tested on Escherichia coli TOP10. -0.128

How about RRIRCRPPRLPRPRPRPNKFPRP ? -0.472

How about RRIRGRPPRLPRPRPRPNQLPRP ? 0.0782
